Recorded melting point for the following compounds
REPORTED ENDPOINT: melting point

1) CCCc1nccn1-c1nc(-c2ccc(Cl)cc2)c(CCCOc2ccccc2OC)o1; 89 to 90 °C
2) Cc1nccn1-c1nc(-c2ccc(Cl)cc2)c(CCCOc2ccccc2CCCO)o1; 119 to 120 °C
3) Cc1nccn1-c1nc(-c2ccc(Cl)s2)c(CCCCO)o1; 77 to 79 °C
4) CCOC(=O)CCCc1sc(N)nc1-c1ccc(Cl)cc1; 114 to 115 °C
5) Cc1nccn1-c1nc(-c2ccc(Cl)cc2)c(CCCOc2ccccc2CCC(=O)O)o1; 184 to 185 °C
6) Cc1nccn1-c1nc(-c2ccc(Cl)cc2)c(CCCCO)s1; 98 to 99 °C
7) Cc1nccn1-c1nc(-c2ccc(Cl)cc2)c(CCCOc2ccccc2O)o1; 110 to 111 °C
8) CCc1nccn1-c1nc(-c2ccc(Cl)cc2)c(CCCOc2ccccc2OC)o1; 78 to 79 °C
9) COC(=O)CCc1oc(-n2ccnc2C)nc1-c1ccc(Cl)c(Cl)c1; 116 to 117 °C
10) Cc1nccn1-c1nc(-c2ccc(F)cc2)c(CCCCO)o1; 97 to 98 °C
11) CCc1nccn1-c1nc(-c2ccc(Cl)cc2)c(CCCOc2ccccc2C)o1; 91 to 92 °C
12) CCOC(=O)C1CCN(c2nc(-c3ccc(Cl)cc3)c(CCCOc3ccccc3OC)o2)CC1; 80 to 81 °C
13) Cc1cc(O)ccc1OCCCc1oc(-n2ccnc2C)nc1-c1ccc(Cl)cc1; 175 to 176 °C
14) Cc1cccc(Cl)c1CCCOc1oc(-n2ccnc2C)nc1-c1ccc(Cl)cc1; 115 to 116 °C
15) COc1ccccc1OCCCc1oc(-n2cnc(-c3ccccc3)c2-c2ccccc2)nc1-c1ccc(Cl)cc1; 118 to 119 °C

---

REPORTED ENDPOINT: melting point

1. COc1ccccc1OCCCc1oc(N2CCOCC2)nc1-c1ccc(Cl)cc1 [Example 39]; 81 to 82 °C
2. Cc1nccn1-c1nc(-c2ccc(C(F)(F)F)cc2)c(CCCO)o1 [Example 118]; 127 to 129 °C
3. CCCCCCCCCCCc1nccn1-c1nc(-c2ccc(Cl)cc2)c(CCCOc2ccccc2OC)o1 [Example 84]; 53 to 54 °C
4. Cc1cc(C)n(-c2nc(-c3ccc(Cl)cc3)c(CCCOc3ccccc3C)o2)n1 [Example 72]; 103 to 104 °C
5. COC(=O)CCc1oc(-n2ccnc2C)nc1-c1ccc(C(F)(F)F)cc1 [Example 116]; 94 to 95 °C
6. Cc1nccn1-c1nc(-c2ccc(Cl)c(Cl)c2)c(CCCO)o1 [Example 119]; 140 to 141 °C
7. Cc1ccccc1OCCCc1sc(-n2ccnc2C)nc1-c1ccc(Cl)cc1 [Example 96]; 112 to 113 °C
8. CCOC(=O)c1nccn1-c1nc(-c2ccc(Cl)cc2)c(CCCOc2ccccc2OC)o1 [Example 69]; 90 to 91 °C
9. Cc1ccccc1OCCCc1oc(-n2ccnc2)nc1-c1ccc(Cl)cc1 [Example 55]; 113 to 114 °C
